Data provenance: PubChem BioAssay (NCI)

Test system: NCI/ADR-RES ovarian
Experiment: NCI-60 one-dose screen, 48 h (100 = growth as untreated, 0 = no growth, -100 = all killed)
Details: 10 µM unless noted
Procedure: Growth inhibition of the NCI/ADR-RES human […] tumor cell line is measured as a screen for anti-cancer activity. Cells are grown in 96 well plates and exposed to the test compound for 48 hours. Compounds are tested at a single concentration, which is 10^-5 M for most compounds. The reported endpoint is percent growth (GI% or GIPRCNT), where numbers from 0 - 100% represent growth inhibition, and numbers from -100% - 0 represent cell death. For example, a value of 40 represents 60% growth inhibition. […]
The panel holds about 83,000 compounds, 20% with a hit somewhere; the sample as a whole holds those more often.
OBSERVATION_TYPE: growth (%)
Please respond with the number in % and leave the unit unwritten.

Query block: What value of growth has been recorded for this entry: O=C1C2C(C(=O)[N]1[Hg][c]1cccs1)C1(Cl)C(Cl)=C(Cl)C2(Cl)C1(Cl)Cl (stereo unspecified)
Result block: 21

Query block: Ok, now CN1C(=O)C(=Cc2cn(Cc3ccccc3)c3ccccc23)C(=O)N(C)C1=O
Result block: 89

Query block: Ok, now O=C(O)c1c(Cl)n(Cc2ccc(O)cc2)c2ccc(O)cc12
Result block: 118

Query block: Ok, now CC1=C2[C@@H](CC1)[C@]1(C)O[C@@](C(C)C)(C[C@H]1O)[C@H]2OC(=O)C1CC1c1ccccc1 (stereo partly specified)
Result block: 77.4

Query block: Ok, now COc1cc2c(cc1OCCCCCn1c(-c3ccco3)nc3ccccc31)N=C[C@@H]1CCCN1C2=O
Result block: 11.2

Query block: Ok, now CCOC(=O)[C@@H](C)C[C@H](Cc1ccccc1)NC(=O)c1csc([C@@H](C[C@H](C(C)C)N(C)C(=O)[C@H](CC)NC(=O)[C@H]2CCCCN2C)OC(C)=O)n1
Result block: 7.74

Query block: Ok, now c1ccc(CSC(c2ccccc2)c2ccccc2)cc1
Result block: 106

Query block: Ok, now COC(=O)N[C@H]1CCc2c(Br)c(OC)c(OC)c(OC)c2-c2ccc(SC)c(=O)cc21
Result block: 7.33

Query block: Ok, now COC(=O)[C@@H](C)C[C@H](Cc1ccccc1)NC(=O)c1nc([C@@H](C[C@H](C(C)C)N(C)C(=O)[C@@H](NC(=O)[C@H]2CCCCN2C)C(C)C)OC(C)=O)sc1C
Result block: 16.5

Query block: Ok, now O=C1C=C2C(=CCOC2O)O1 (stereo unspecified)
Result block: 0.601

Query block: Ok, now CC[C@H](C)[C@H](NC(=O)[C@H]1CCCCN1C)C(=O)N(C)[C@H](C[C@@H](OC(C)=O)c1nc(C(=O)NC23CC(C(=O)OC)(C2)C3)cs1)C(C)C
Result block: 10

---

Tested on: HCC-2998 colon
Assay: NCI-60 one-dose screen, 48 h (100 = growth as untreated, 0 = no growth, -100 = all killed)
Conditions: 10 µM unless noted
Compounds without any hit were thinned out: in the full panel of roughly 83,000, 20% have a hit.
OBSERVATION_TYPE: growth (%)
Please respond with the number in % and leave the unit unwritten.

Query block: What value of growth has been recorded for this entry: N#CCCNc1ccccc1
Result block: 106

Query block: Ok, now CCCc1cc(O)c2c3c(c(=O)oc2c1)CN(C)CC3
Result block: 53.9

Query block: Ok, now C=CCCCCCCCCC(=O)[O-].C=CCCCCCCCCC(=O)[O-].[Zn+2]
Result block: 107

Query block: Ok, now CCN1C(=O)C(=C/C=C/c2ccccc2)C(=O)N(CC)C1=O
Result block: 112

Query block: Ok, now COC(=O)[C@@H](C)C[C@H](Cc1ccccc1)NC(=O)c1csc([C@@H](C[C@H](C(C)C)N(C)C(=O)[C@@H](NC(=O)[C@H]2CCCN2C)C2CC2)OC(C)=O)n1
Result block: 14.8

Query block: Ok, now ClC1=C(Cl)C(Cl)(C2(Cl)C(Cl)=C(Cl)C(Cl)=C2Cl)C(Cl)=C1Cl
Result block: 52.1

Query block: Ok, now O=NN1CCCc2cccc(O)c21
Result block: 55.7

Query block: Ok, now CC(=O)OCC1O[C@@H]([S-])C(OC(C)=O)[C@H](OC(C)=O)[C@@H]1OC(C)=O.[Au+].c1ccc(CN2[CH-]N(Cc3ccccc3)C(c3ccccc3)=C2c2ccccc2)cc1
Result block: -57.4

Query block: Ok, now CC(=O)O[C@H](C[C@H](C(C)C)N(C)C(=O)[C@@H](NC(=O)[C@H]1CCCCN1C)C(C)C)c1cccc(C(=O)N[C@@H](Cc2ccccc2)C[C@H](C)C(=O)O)n1
Result block: 9.77

Query block: Ok, now O=[N+]([O-])c1cc(I)cc([N+](=O)[O-])c1
Result block: 104

Query block: Ok, now CC1=C([Te]c2ccc(O)cc2)C(=O)c2ccccc2C1=O
Result block: -1.49

Query block: Ok, now CC(C)CCC(=O)O[C@H]1CC[C@H]2[C@@H]3CCC4=CC(=O)CC[C@]4(C)[C@H]3CC[C@]12C
Result block: 105

Query block: Ok, now CC[C@H](C)[C@H](NC(=O)[C@H]1CCCCN1C)C(=O)N(C)[C@H](CC(=O)c1nc(C(=O)N[C@@H](Cc2ccccc2)C[C@H](C)C(=O)O)cs1)C(C)C
Result block: 87.9

Query block: Ok, now COP(=O)(OC)C(O)c1ccc(Cl)cc1 (stereo not drawn)
Result block: 98.9

Query block: Ok, now CN(C)CCCOc1ccc2c(c1)c(C(=O)C(=O)NCCO)cn2Cc1ccccc1
Result block: 115

Query block: Ok, now COc1ccc2c(c1)c(-c1nc(-c3cn(C)c4ncccc34)cs1)cn2CCN1CCOCC1
Result block: 95.6

Query block: Ok, now COc1cc2c(cc1OCCCCn1c(-c3cccs3)nc3ccccc31)N=C[C@@H]1CCCN1C2=O
Result block: 0.698

Query block: Ok, now O=C(c1ccccc1O)c1[nH]c(Cl)c(Cl)c1-n1c(C(=O)c2ccccc2O)cc(Cl)c1Cl
Result block: 15.3

---

Test system: NCI-H322M lung
Experiment: NCI-60 one-dose screen, 48 h (100 = growth as untreated, 0 = no growth, -100 = all killed)
Conditions: 10 µM unless noted
Compounds without any hit were thinned out: in the full panel of roughly 83,000, 20% have a hit.
Note to self: growth under 90% means Condition met, ties and anything higher get Condition not met.

Query block: Check if growth falls below 90% for Cc1cnc(/C=C/C(=O)O)cc1-c1cc2c(cc1C)C(C)(C)CCC2(C)C .
Result block: Condition not met

Query block: Ok, now COc1cc(/C=C\c2cc(OC)c(OC)c(OC)c2)cc(N/C=C\C(=O)c2cc(OC)c(OC)c(OC)c2)c1OC
Result block: Condition met

Query block: Ok, now Cc1cc(NC(=O)NCc2ccc(N3C(N)=NC(N)=NC3(C)C)cc2)ccc1S(=O)(=O)F
Result block: Condition met

Query block: Ok, now Cc1ccc(C(=O)NCCCOc2ccc(N)cc2Cl)cc1S(=O)(=O)F
Result block: Condition met

Query block: Ok, now C/C1=C/C(=O)O[C@@H]2C[C@@H](CC[C@H](C)/C=C\C=C\CC1)O[C@@](O)([C@@H]1CSC(=O)N1CO)C2
Result block: Condition met

Query block: Ok, now O=C(c1ccccc1O)c1[nH]c(Cl)c(Cl)c1-n1c(C(=O)c2ccccc2O)cc(Cl)c1Cl
Result block: Condition met

Query block: Ok, now COc1cc([N+](=O)[O-])c2nc(C)ccc2c1[N+](=O)[O-]
Result block: Condition not met

Query block: Ok, now O=C(N/N=C\c1ccc(N(CCCl)CCCl)cc1Cl)c1cccnc1
Result block: Condition not met

Query block: Ok, now NC(=Nc1ccccc1)N[N+](=O)[O-]
Result block: Condition not met

---

Tested on: SK-MEL-5 melanoma
Assay: NCI-60 one-dose screen, 48 h
Details: 10 µM unless noted
Procedure: Growth inhibition of the SK-MEL-5 human tumor cell line is measured as a screen for anti-cancer activity. Cells are grown in 96 well plates and exposed to the test compound for 48 hours. Compounds are tested at a single concentration, which is 10^-5 M for most compounds. The reported endpoint is percent growth (GI% or GIPRCNT), where numbers from 0 - 100% represent growth inhibition, and numbers from -100% - 0 represent cell death. For example, a value of 40 represents 60% growth inhibition. […]
This is part of a sample that, as a whole, favours compounds with a hit. Of some 83,000 tested, about 20% had one in any assay. The source made the active and inactive calls. The calls were made as follows: active = growth percent below 10; inactive = the rest.
A correct response names exactly one class from active, inactive

Query block: Dear all, I need the recorded test outcome for O=[As](O)(O)c1ccccc1[As](=O)(O)O , thank you.
Result block: inactive

Query block: Ok, now O=C1N[C@@H]2[C@@H](O)[C@@H](O)[C@H](O)C[C@H]2c2cc3c(c(O)c21)OCO3
Result block: active

Query block: Ok, now O=[N+]([O-])c1cc([N+](=O)[O-])c(Cl)cc1Cl
Result block: inactive

Query block: Ok, now COC(=O)[C@@H](C)C[C@H](Cc1ccccc1)NC(=O)c1csc([C@@H](C[C@H](C(C)C)N(C)C(=O)[C@@H](NC(=O)C23CC(NC(C)=O)(C2)C3)C2CC2)OC(C)=O)n1
Result block: inactive

Query block: Ok, now COc1cc(NC(C)CCCNC2CN3CCC2CC3)c2ncccc2c1 (stereo not given)
Result block: inactive

Query block: Ok, now CC[C@@H]1[C@@H](C)O[C@@](O)([C@@H](C)[C@H](O)[C@H](C)[C@H]2OC(=O)/C=C/C=C/[C@H](C)[C@@H]([C@@H](C)[C@@H](O)[C@H](C)[C@@]3(O)C[C@@H](O[C@H]4C[C@@H](O)[C@H](O)C(C)O4)[C@H](CC)[C@@H](C)O3)OC(=O)/C=C/C=C/[C@@H]2C)C[C@H]1O[C@@H]1C[C@@H](O)[C@H](O)C(C)O1 (stereo not given in full)
Result block: active

Query block: Ok, now COc1ccc([As]=[As]c2ccc(OC)c(NCS(=O)(=O)O)c2)cc1NCS(=O)(=O)O (stereo not given)
Result block: active

Query block: Ok, now Nc1nnnc2nc[nH]c12
Result block: inactive

Query block: Ok, now COC(=O)[C@]12CCC(C)(C)C[C@H]1[C@H]1C(=O)C[C@@H]3[C@@]4(C)C[C@@]5(CC(C)(C)[C@@H]4CC[C@@]3(C)[C@]1(C)CC2)OO[C@@](C)(C(F)(F)F)O5
Result block: inactive

Query block: Ok, now CCCCN1CCCC[C@@H]1C(=O)N[C@H](C(=O)N(C)[C@H](C[C@@H](OC(C)=O)c1nc(C(=O)NC2CCC(C(=O)OC)CC2)cs1)C(C)C)C(C)C (stereo not given in full)
Result block: inactive

Query block: Ok, now COc1cc([C@@H]2c3cc4c(cc3[C@H](OC(C)=O)[C@H]3COC(=O)[C@H]23)OCO4)cc(OC)c1OC
Result block: active

Query block: Ok, now CC(=O)Nc1ccc(NC(=O)c2ccc([As](O)O)cc2)cc1
Result block: inactive

Query block: Ok, now ClCCN(CCCl)Cc1ccc(Nc2ccnc3cc(Cl)ccc23)cc1
Result block: inactive

Query block: Ok, now NC(=O)CNc1ccc([As]=[As]c2ccc(NCC(N)=O)cc2)cc1 (stereo not given)
Result block: inactive

Query block: Ok, now CNCc1cccnc1
Result block: inactive

Query block: Ok, now O=C1NC(=O)C(=Cc2ccc(OCCCCC3CCCCC3)c(Cl)c2)C(=O)N1
Result block: inactive

Query block: Ok, now CN(C)C1C(=O)C(C(N)=O)=C(O)C2(O)C(=O)C3=C(O)c4c(O)cccc4C(C)(O)C3CC12.[Cl][Sb]([Cl])[Cl] (stereo not given)
Result block: inactive

Query block: Ok, now CN1C(=O)C23CC4(C56CC78SSC(CO)(C(=O)N7C5Nc5ccccc56)N(C)C8=O)c5ccccc5NC4N2C(=O)C1(CO)SS3 (stereo not given)
Result block: active

Query block: Ok, now CCCCCN(CCCCC)CC(O)c1cc(Cl)ccc1OC (stereo not given)
Result block: inactive

Query block: Ok, now C[C@]12CCc3sc(NCCc4ccccc4)nc3C1=CC[C@@H]1[C@@H]2CC[C@]2(C)C(=O)CC[C@@H]12
Result block: inactive

Query block: Ok, now O=C(O)c1c(Cl)n(Cc2ccc(O)cc2)c2ccc(O)cc12
Result block: inactive

Query block: Ok, now N#C[Se]Cc1cc(-c2ccccc2)n(-c2ccc(S(N)(=O)=O)cc2)n1
Result block: active

Query block: Ok, now CCCC[C@H](NC(=O)[C@H]1CCCCN1C)C(=O)N(C)[C@H](C[C@@H](OC(C)=O)c1nc(C(=O)N[C@@H](Cc2ccccc2)C[C@H](C)C(=O)OCC)cs1)C(C)C
Result block: active

Query block: Ok, now CCOC(=O)[C@@H](C)C[C@H](Cc1ccccc1)NC(=O)c1nc([C@@H](C[C@H](C(C)C)N(C)C(=O)[C@@H](NC(=O)[C@H]2CCCCN2C)C(C)C)OC(C)=O)sc1CCOCc1ccccc1
Result block: active

Query block: Ok, now CC(=O)OC[C@]1(C)C=C2C(=O)[C@](C)(O)C3(CC3)C(C)=C2[C@H]1O
Result block: active

Query block: Ok, now CC1(C)C(C(=O)c2cn(CCCCF)c3ccccc23)C1(C)C
Result block: inactive

Query block: Ok, now CCn1nccc1NC(=O)C(=O)c1cn(Cc2ccc(F)cc2)c2cccc(OC)c12
Result block: inactive

Query block: Ok, now CC12CCC3C(CCC4Cc5[nH]c6ccccc6c5CC43C)C1CCC2O (stereo not given)
Result block: active

Query block: Ok, now COc1ccc2c(c1)c(-c1nc(-c3c[nH]c4ncccc34)cs1)cn2CCN1CCOCC1
Result block: inactive

Query block: Ok, now CC(=O)Oc1ccccc1C(=O)NCCC[Se]C#N
Result block: inactive
